Biological target: T1, EsCas13d, nuclease-dead (Eubacterium siraeum, UniProt B0MS50, R295A;H300A;R849A;H854A)
T1 sequence: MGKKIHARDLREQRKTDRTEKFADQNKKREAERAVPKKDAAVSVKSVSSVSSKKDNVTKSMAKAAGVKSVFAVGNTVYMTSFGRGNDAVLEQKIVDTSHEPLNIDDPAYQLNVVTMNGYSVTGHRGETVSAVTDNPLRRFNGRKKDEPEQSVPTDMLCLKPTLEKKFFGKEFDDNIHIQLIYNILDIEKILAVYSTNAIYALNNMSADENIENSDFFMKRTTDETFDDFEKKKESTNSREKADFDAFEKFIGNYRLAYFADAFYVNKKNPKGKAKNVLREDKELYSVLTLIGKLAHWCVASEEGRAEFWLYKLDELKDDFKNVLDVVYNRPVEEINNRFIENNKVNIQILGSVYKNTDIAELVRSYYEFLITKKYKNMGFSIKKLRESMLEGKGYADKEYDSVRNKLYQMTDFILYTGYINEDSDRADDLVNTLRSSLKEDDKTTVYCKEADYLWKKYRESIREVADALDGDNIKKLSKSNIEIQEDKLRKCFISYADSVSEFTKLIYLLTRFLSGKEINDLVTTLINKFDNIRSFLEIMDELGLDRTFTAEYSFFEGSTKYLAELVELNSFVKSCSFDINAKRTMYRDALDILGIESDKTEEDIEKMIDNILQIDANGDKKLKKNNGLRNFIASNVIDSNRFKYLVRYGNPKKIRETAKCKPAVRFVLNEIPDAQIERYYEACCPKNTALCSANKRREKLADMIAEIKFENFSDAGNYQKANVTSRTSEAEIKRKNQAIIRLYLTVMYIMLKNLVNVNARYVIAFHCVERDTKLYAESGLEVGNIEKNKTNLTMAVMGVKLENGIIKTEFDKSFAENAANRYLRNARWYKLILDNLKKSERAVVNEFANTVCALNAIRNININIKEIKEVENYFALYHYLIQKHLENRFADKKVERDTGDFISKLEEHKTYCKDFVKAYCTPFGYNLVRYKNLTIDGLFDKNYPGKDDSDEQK
Assay: crRNA (strand 1, pre-loaded); Mg2+; 40 mM Tris-HCl pH 7.5, 150 mM NaCl, 6 mM MgCl2, 1 mM DTT, 0.1% Tween-20, 0.2 mg/ml BSA; 25 C; 10 min per concentration, then washed
Settings: tags: His6-TwinStrep-SUMO cleaved; N-terminal SNAP kept (SNAP-Surface 488); label: 3' end held by stalled T7 RNA polymerase
assay_readout: Kd
# include the unit after the value

Solved cases below.
Exercise: What does the data say about its Kd? Entry: target 1 complement block 1-5 (mixed) RNA 1: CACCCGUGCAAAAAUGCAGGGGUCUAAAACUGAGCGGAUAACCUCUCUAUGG RNA 2: GGGAAUGGAUCCACAUCUACGAAUUCGUACCAUAGAGAGGUUAUCCCGAGUCCGAGAUCGGAAGAGCACACGU
Key: 14.3 nM

Exercise: What does the data say about its Kd? Entry: target 1 insC 3' of 12,insA 3' of 11 (mixed) RNA 1: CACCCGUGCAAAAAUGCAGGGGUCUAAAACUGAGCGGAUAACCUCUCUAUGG RNA 2: GGGAAUGGAUCCACAUCUACGAAUUCGUACCAUAGAGAGGCUAUAUCCGCUCACCGAGAUCGGAAGAGCACACGU
Key: 15 nM

Exercise: What does the data say about its Kd? Entry: target 1 insU 3' of 21,insA 3' of 13 (mixed) RNA 1: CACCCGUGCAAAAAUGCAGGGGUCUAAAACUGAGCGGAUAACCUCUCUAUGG RNA 2: GGGAAUGGAUCCACAUCUACGAAUUCGUACCUAUAGAGAGAGUUAUCCGCUCACCGAGAUCGGAAGAGCACACGU
Key: 21.3 nM

Batch of 5 binders: report Kd for each.
1. target 2 MT 5'PFS CGC 3'PFS AUG (mixed) RNA 1: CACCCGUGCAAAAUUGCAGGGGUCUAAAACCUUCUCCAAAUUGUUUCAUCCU RNA 2: GGGAAUGGAUCCACAUCUACGAAUUCCGCAGGAUGAAACAAUUUGGAGAAGAUGAGAUCGGAAGAGCACACGU
2. target 1 MT 5'PFS GUG 3'PFS CGC (mixed) RNA 1: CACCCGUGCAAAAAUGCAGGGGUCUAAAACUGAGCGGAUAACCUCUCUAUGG RNA 2: GGGAAUGGAUCCACAUCUACGAAUUCGUGCCAUAGAGAGGUUAUCCGCUCACGCAGAUCGGAAGAGCACACGU
3. target 1 MT 5'PFS GAC 3'PFS CAC (mixed) RNA 1: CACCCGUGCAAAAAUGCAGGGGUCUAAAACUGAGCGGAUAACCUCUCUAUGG RNA 2: GGGAAUGGAUCCACAUCUACGAAUUCGACCCAUAGAGAGGUUAUCCGCUCACACAGAUCGGAAGAGCACACGU
4. target 3 insA 3' of 10,insG 3' of 7 (mixed) RNA 1: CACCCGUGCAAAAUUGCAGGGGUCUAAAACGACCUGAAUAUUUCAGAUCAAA RNA 2: GGGAAUGGAUCCACAUCUACGAAUUCGUUUUUGAUCUGAAAUAAUUGCAGGUCUGCAGAUCGGAAGAGCACACGU
5. target 2 MT 5'PFS AGC 3'PFS UAU (mixed) RNA 1: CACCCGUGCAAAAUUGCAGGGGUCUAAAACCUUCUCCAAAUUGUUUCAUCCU RNA 2: GGGAAUGGAUCCACAUCUACGAAUUCAGCAGGAUGAAACAAUUUGGAGAAGUAUAGAUCGGAAGAGCACACGU

Key:
["5 nM", "22.6 nM", "61 nM", "73.5 nM", "8.9 nM"]
